Biological target: T1, human IL-23 (human, UniProt Q9NPF7 20-189; P29460 23-328)
T1 sequence (looked up) 1: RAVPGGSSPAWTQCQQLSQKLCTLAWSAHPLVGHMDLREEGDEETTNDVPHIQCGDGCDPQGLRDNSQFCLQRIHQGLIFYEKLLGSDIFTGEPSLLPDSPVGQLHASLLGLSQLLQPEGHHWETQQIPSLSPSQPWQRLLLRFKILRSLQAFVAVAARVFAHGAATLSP
T1 sequence (looked up) 2: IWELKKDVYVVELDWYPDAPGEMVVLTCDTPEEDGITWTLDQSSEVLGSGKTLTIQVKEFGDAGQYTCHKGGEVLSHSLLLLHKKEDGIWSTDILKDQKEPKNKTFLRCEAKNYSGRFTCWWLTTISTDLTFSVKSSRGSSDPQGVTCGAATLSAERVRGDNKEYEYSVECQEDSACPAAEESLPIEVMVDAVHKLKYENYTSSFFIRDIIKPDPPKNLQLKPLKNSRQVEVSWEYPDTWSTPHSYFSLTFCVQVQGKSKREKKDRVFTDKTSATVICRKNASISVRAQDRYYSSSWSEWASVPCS
Test: cell-based or functional assay
recorded metric: IL-22 EC50 (nM)

Observe how each entry below is paired with its result.
[
  {
    "binder": "1550 E06 (designed binder, captured by anti-His mAb) MGVSDVPRDLEVVAATPTSLLISWGHYPMHVRYYRITYGETGGNSPVQEFTVPPPRHTATISGLKPGVDYTITVYAVTYYAQENYKEIPISINYRTEIDKPSQHHHHHH",
    "recorded metric": "IL-22 EC50",
    "observed value": 2.1
  },
  {
    "binder": "1490H05 (designed binder, captured by anti-His mAb) MGVSDVPRDLEVVAATPTSLLISWGHYPLHVRYYRITYGETGGNSPVQEFTVPMRQHTATISGLKPGVDYTITVYAVTYYAQENYKEIPISINYRTEIDKPSQHHHHHH",
    "recorded metric": "IL-22 EC50",
    "observed value": 2.9
  }
]

I. 1571H03 (designed binder, captured by anti-His mAb) MGVSDVPRDLEVVAATPTSLLISWGHYPLHVRYYRITYGETGGNSPVQEFTVPNRVYTATISGLKPGVDYTITVYAVTYYAQEEYHIIPISINYRTEIDKPSQHHHHHH
II. 1572C09 (designed binder, captured by anti-His mAb) MGVSDVPRDLEVVAATPTSLLISWGHYPMHIRYYRITYGETGGNSPVQEFTVPTPKHTATISGLKPGVDYTITVYAVTYYNEADYSQIPISINYRTEIDKPSQHHHHHH
# return whichever of I and II has the smaller IL-22 EC50 Which one? Tell me its label.
I

Reference source: patent US20130012436A1
